Target: T1, Mcl-1, Q07820
T1 chain: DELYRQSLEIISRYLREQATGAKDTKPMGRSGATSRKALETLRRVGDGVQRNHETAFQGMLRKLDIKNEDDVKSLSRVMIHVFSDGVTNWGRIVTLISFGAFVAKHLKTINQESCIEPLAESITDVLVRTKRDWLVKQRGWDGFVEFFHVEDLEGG
Assay: peptide SPOT array, c-Myc-tagged receptor at 1 uM or 100 nM, anti-c-Myc-Cy3
ASSAY ENDPOINT: SPOT signal as a fraction of Bim BH3's signal on the same receptor and array

> print(dat)
                                 binder  numeric.value
1    WVKSIRICTPMGKLGDSCHPLTRKVP [PROK2]           0.81
2  CANHPSAVNVLTEHSEELGEFMETKG [ARHGEF7]           0.01
3     AALFLHAGCQLLTALEDGKVQVWSGS [TEP1]           0.01

[P] SVRYYPSGDADASGSDDATCRLYDLR [GNB5]
[Q] QEQEQHVPFDIHTYLDQLVSRFPQLN [NCAPH2]
[R] ISSLDLLPYGLRYILKVLKNSIHEKF [IQGAP2]
[S] VPSGTSLARNLKRVAETWMDEFAEYI [GALNTL6]
Query: List items by SPOT signal as a fraction of Bim BH3's signal on the same receptor and array in falling order. When ranking, write the labels in the order the request describes.
Result: R, Q, S, P
(R: 0.66, Q: 0.04, S: 0.02, P: 0.01)
